- Test system: K. pneumoniae GN_102 PmxR
- STUDY_CONDITIONS: GN 102 PmxR
Positions of bridges follow the written chain, without caps; N, C: chain ends. Non-standard residues stand in square brackets, D forms with d. Residues, ends and D or L forms follow the SMILES beside them. *: point of attachment. Decanoyl(3R-OH) = CCCCCCC[C@@H](O)CC(=O)*; Phe(4-NH2) = Nc1ccc(C[C@H](N)C(=O)O)cc1; dDab = NCC[C@@H](N)C(=O)O; Dab = NCC[C@H](N)C(=O)O
QUANTITY: MIC, K. pneumoniae Cl Koprana 10065 0661:1, PmxR
The reply must contain the numeric value and, after it, the unit.

CCCCCCC[C@@H](O)CC(=O)N[C@H](CCN)C(=O)N[C@H]1CCNC(=O)[C@H](CC(C)C)NC(=O)[C@H](CCN)NC(=O)[C@H](CCN)NC(=O)[C@H](CC(C)C)NC(=O)[C@@H](Cc2ccccc2)NC(=O)[C@H](CCN)NC1=O [Octapeptin C4 (631), reference compound] ({Decanoyl(3R-OH)}-[dDab][Dab][Dab][dF]L[Dab][Dab]L; lactam 2-C) | 2 µg/mL

Task: For the molecule CCCCCCC[C@@H](O)CC(=O)N[C@H](CCN)C(=O)N[C@H]1CCNC(=O)[C@H](CC(C)C)NC(=O)[C@H](CCN)NC(=O)[C@H](Cc2ccc(N)cc2)NC(=O)[C@H](CC(C)C)NC(=O)[C@@H](Cc2ccccc2)NC(=O)[C@H](CCN)NC1=O [compound 8642] ({Decanoyl(3R-OH)}-[dDab][Dab][Dab][dF]L[Phe(4-NH2)][Dab]L; lactam 2-C) , what MIC, K. pneumoniae Cl Koprana 10065 0661:1, PmxR is on record?
Result: 2 µg/mL

###

- System: E. coli ATCC 25922
- STUDY_CONDITIONS: ATCC 25922
Positions of bridges follow the written chain, without caps; N, C: chain ends. Non-standard residues stand in square brackets, D forms with d. Residues, ends and D or L forms follow the SMILES beside them. *: point of attachment. Benzoyl(4-Ph) = O=C(c1ccc(-c2ccccc2)cc1)*; Decanoyl(3R-OH) = CCCCCCC[C@@H](O)CC(=O)*; dBip = N[C@H](Cc1ccc(-c2ccccc2)cc1)C(=O)O; d2Nal = N[C@H](Cc1ccc2ccccc2c1)C(=O)O; Butanoyl(4-OPh) = O=C(CCCOc1ccccc1)*; d(hPhe) = N[C@H](CCc1ccccc1)C(=O)O; dDab = NCC[C@@H](N)C(=O)O; Dab = NCC[C@H](N)C(=O)O; Dap = NC[C@H](N)C(=O)O
Below is a list of entries, each paired with its recorded MIC E. coli ATCC 25922 value.
Numeric answer only, unit µg/mL assumed.

CCCCCCC[C@@H](O)CC(=O)N[C@H](CCN)C(=O)N[C@H]1CCNC(=O)[C@H](Cc2c[nH]c3ccccc23)NC(=O)[C@H](CCN)NC(=O)[C@H](CCN)NC(=O)[C@H](CC(C)C)NC(=O)[C@@H](Cc2ccc3ccccc3c2)NC(=O)[C@H](CCN)NC1=O [compound 8113] ({Decanoyl(3R-OH)}-[dDab][Dab][Dab][d2Nal]L[Dab][Dab]W; lactam 2-C) | 8

Task: // lookup MIC E. coli ATCC 25922 | system=E. coli ATCC 25922 | key= CCCCCCC[C@@H](O)CC(=O)N[C@H](CCN)C(=O)N[C@H]1CCNC(=O)[C@H](Cc2c[nH]c3ccccc23)NC(=O)[C@H](CCN)NC(=O)[C@H](CCN)NC(=O)[C@H](CC(C)C)NC(=O)[C@@H](CCc2ccccc2)NC(=O)[C@H](CCN)NC1=O [compound 8129] ({Decanoyl(3R-OH)}-[dDab][Dab][Dab][d(hPhe)]L[Dab][Dab]W; lactam 2-C)
Result: 2

Task: Param item: CCCCCCC[C@@H](O)CC(=O)N[C@@H](CCN)C(=O)N[C@H]1CCNC(=O)[C@H](CC(C)C)NC(=O)[C@H](CCN)NC(=O)[C@H](CCN)NC(=O)[C@H](C)NC(=O)[C@@H](Cc2ccccc2)NC(=O)[C@H](CCN)NC1=O [compound 5563] ({Decanoyl(3R-OH)}-[Dab][Dab][Dab][dF]A[Dab][Dab]L; lactam 2-C)
Result: 32

Task: Param item: CC(C)C[C@@H]1NC(=O)[C@H](CCN)NC(=O)[C@H](CCN)NC(=O)[C@H](Cc2ccccc2)NC(=O)[C@@H](CC(C)C)NC(=O)[C@H](CCN)NC(=O)[C@@H](NC(=O)[C@@H](CCN)NC(=O)CCCOc2ccccc2)CCNC1=O [compound 6521] ({Butanoyl(4-OPh)}-[dDab][Dab][Dab][dL]F[Dab][Dab]L; lactam 2-C)
Result: 8

Task: Param item: CCCCCCC[C@@H](O)CC(=O)N[C@@H](CCN)C(=O)N[C@H]1CCNC(=O)[C@H](CC(C)C)NC(=O)[C@H](CN)NC(=O)[C@H](CCN)NC(=O)[C@H](CC(C)C)NC(=O)[C@@H](Cc2ccc(-c3ccccc3)cc2)NC(=O)[C@H](CCN)NC1=O [compound 5565] ({Decanoyl(3R-OH)}-[Dab][Dab][Dab][dBip]L[Dab][Dap]L; lactam 2-C)
Result: 4

Task: Param item: CC(C)C[C@@H]1NC(=O)[C@H](CCN)NC(=O)[C@H](CCN)NC(=O)[C@H](CC(C)C)NC(=O)[C@@H](Cc2ccccc2)NC(=O)[C@H](CCN)NC(=O)[C@@H](NC(=O)[C@@H](CCN)NC(=O)c2ccc(-c3ccccc3)cc2)CCNC1=O [compound 6526] ({Benzoyl(4-Ph)}-[dDab][Dab][Dab][dF]L[Dab][Dab]L; lactam 2-C)
Result: 8

###

Below is a list of entries, each paired with its recorded MIC N. gonorrhoeae FA1090 A25 ATCC 700825 value.
- System: Neisseria gonorrhoeae
- ASSAY_DETAILS: MIC determination, Neisseria gonorrhoeae
- Format: cell-based
- STUDY_CONDITIONS: strain FA1090 A25 ATCC 700825
Positions of bridges follow the written chain, without caps; N, C: chain ends. Non-standard residues stand in square brackets, D forms with d. Residues, ends and D or L forms follow the SMILES beside them. *: point of attachment. Decanoyl(3R-OH) = CCCCCCC[C@@H](O)CC(=O)*; dDab = NCC[C@@H](N)C(=O)O; Orn = NCCC[C@H](N)C(=O)O; dDap = NC[C@@H](N)C(=O)O; Dab = NCC[C@H](N)C(=O)O
Numeric answer only, unit µg/mL assumed.

CCCCCCC[C@@H](O)CC(=O)N[C@H](CCN)C(=O)N[C@H]1CCNC(=O)[C@H](CC(C)C)NC(=O)[C@H](CCN)NC(=O)[C@H](CCCN)NC(=O)[C@H](CC(C)C)NC(=O)[C@@H](Cc2ccccc2)NC(=O)[C@H](CCN)NC1=O [compound 991] ({Decanoyl(3R-OH)}-[dDab][Dab][Dab][dF]L[Orn][Dab]L; lactam 2-C) | 1.56
CCCCCCC[C@@H](O)CC(=O)N[C@H](CN)C(=O)N[C@H]1CCNC(=O)[C@H](CC(C)C)NC(=O)[C@H](CCN)NC(=O)[C@H](CCN)NC(=O)[C@H](CC(C)C)NC(=O)[C@@H](Cc2ccccc2)NC(=O)[C@H](CCN)NC1=O [compound 6442] ({Decanoyl(3R-OH)}-[dDap][Dab][Dab][dF]L[Dab][Dab]L; lactam 2-C) | 1.3
CCCCCCC[C@@H](O)CC(=O)N[C@H](CN)C(=O)N[C@H]1CCNC(=O)[C@H](Cc2c[nH]c3ccccc23)NC(=O)[C@H](CCN)NC(=O)[C@H](CCN)NC(=O)[C@H](CC(C)C)NC(=O)[C@@H](Cc2ccccc2)NC(=O)[C@H](CCN)NC1=O [compound 8886] ({Decanoyl(3R-OH)}-[dDap][Dab][Dab][dF]L[Dab][Dab]W; lactam 2-C) | 0.91

Note: attention shifts to another entry.
Task: For the compound CCCCCCC[C@@H](O)CC(=O)N[C@H](CCN)C(=O)N[C@H]1CCNC(=O)[C@H](Cc2c[nH]c3ccccc23)NC(=O)[C@H](CCN)NC(=O)[C@H](CCN)NC(=O)[C@H](CC(C)C)NC(=O)[C@@H](Cc2ccccc2)NC(=O)[C@H](CCN)NC1=O [compound 6509] ({Decanoyl(3R-OH)}-[dDab][Dab][Dab][dF]L[Dab][Dab]W; lactam 2-C) , what MIC N. gonorrhoeae FA1090 A25 ATCC 700825 is on record?
Result: 0.65

###

- ASSAY_DETAILS: in vitro
- STUDY_CONDITIONS: human
Positions of bridges follow the written chain, without caps; N, C: chain ends. Non-standard residues stand in square brackets, D forms with d. Residues, ends and D or L forms follow the SMILES beside them. *: point of attachment. Decanoyl(3R-OH) = CCCCCCC[C@@H](O)CC(=O)*; Dab = NCC[C@H](N)C(=O)O
QUANTITY: CC50 at 24 h

Task: For the compound CCCCCCC[C@@H](O)CC(=O)N[C@@H](CCN)C(=O)N[C@H]1CCNC(=O)[C@H](CC(C)C)NC(=O)[C@H](CCN)NC(=O)[C@H](CCN)NC(=O)[C@H](C)NC(=O)[C@@H](Cc2ccccc2)NC(=O)[C@H](CCN)NC1=O [compound 5563] ({Decanoyl(3R-OH)}-[Dab][Dab][Dab][dF]A[Dab][Dab]L; lactam 2-C) , what CC50 at 24 h is on record?
Result: > 300 µM
